testTarget: rat lens aldose reductase (RLAR) (Rattus norvegicus, UniProt P07943)
Construct: from tissue; host or cells: lens of Sprague-Dawley rats (supernatant of homogenate)
protocolDetails: Enzyme kinetics of RLAR inhibition (Lineweaver-Burk and Dixon plots)
Type: biochemical
runParameters: Lineweaver-Burk plot

compound	RLAR Mode of Inhibition
CC(C)=CCCC(C)(O)C1CCC2(C)C1C(O)CC1C3(C)CCC(OC4OC(CO)C(O)C(O)C4OC4OC(CO)C(O)C(O)C4O)C(C)(C)C3CCC12C [(20R) ginsenoside Rg3]	Competitive type
CC(C)=CCC[C@](C)(O)[C@H]1CC[C@]2(C)[C@@H]1[C@H](O)C[C@@H]1[C@@]3(C)CC[C@H](O)C(C)(C)[C@@H]3[C@@H](O[C@@H]3O[C@H](CO)[C@@H](O)[C@H](O)[C@H]3O[C@@H]3O[C@H](CO)[C@@H](O)[C@H](O)[C@H]3O)C[C@]12C [Ginsenoside Rf]	Mixed type
CC(C)=CCC[C@](C)(O)[C@H]1CC[C@]2(C)[C@@H]1[C@H](O)C[C@@H]1[C@@]3(C)CC[C@H](O)C(C)(C)[C@@H]3[C@@H](O[C@@H]3O[C@H](CO)[C@@H](O)[C@H](O)[C@H]3O)C[C@]12C [Ginsenoside Rh1]	Competitive type
CC(C)=CCCC(C)(O)C1CCC2(C)C1C(O)CC1C3(C)CCC(O)C(C)(C)C3C(OC3OC(CO)C(O)C(O)C3OC3OC(C)C(O)C(O)C3O)CC12C [(20S) ginsenoside Rg2]	Mixed type
